- ASSAY PROCEDURE: Population PK model (NONMEM)
- Format: in vivo, HIV-1-infected adults
- SETUP CONDITIONS: human, in vivo, oral; final population PK model; read-out: Volume of distribution (V), estimate
PROPERTY LABEL: Vd (L)
Just the number please, in L, no unit attached.

What does the data say about its Vd? Entry: `C=C(C)[C@@H]1CC[C@]2(NCCN3CCS(=O)(=O)CC3)CC[C@]3(C)[C@H](CC[C@@H]4[C@@]5(C)CC=C(c6ccc(C(=O)O)cc6)C(C)(C)[C@@H]5CC[C@]43C)[C@@H]12` 5.58

* * *

- ASSAY PROCEDURE: Population PK model (NONMEM)
- Type: in vivo, HIV-1-infected adults
- SETUP CONDITIONS: human, in vivo, oral; final population PK model; read-out: Clearance (CL), estimate (converted)
PROPERTY LABEL: clearance (mL/min)
Just the number please, in mL/min, no unit attached.

What does the data say about its clearance? Entry: C=C(C)[C@@H]1CC[C@]2(NCCN3CCS(=O)(=O)CC3)CC[C@]3(C)[C@H](CC[C@@H]4[C@@]5(C)CC=C(c6ccc(C(=O)O)cc6)C(C)(C)[C@@H]5CC[C@]43C)[C@@H]12 [GSK3532795] 37.3

These measurements were taken from paper PMC6198970.
